The reported numbers originate from patent US20250206836A1.

- tested.target: T1, human CD36 (His-tagged) (human, UniProt P16671 30-439)
- T1 construct: not shown: His tag
- T1 sequence (P16671 30-439 limits assumed): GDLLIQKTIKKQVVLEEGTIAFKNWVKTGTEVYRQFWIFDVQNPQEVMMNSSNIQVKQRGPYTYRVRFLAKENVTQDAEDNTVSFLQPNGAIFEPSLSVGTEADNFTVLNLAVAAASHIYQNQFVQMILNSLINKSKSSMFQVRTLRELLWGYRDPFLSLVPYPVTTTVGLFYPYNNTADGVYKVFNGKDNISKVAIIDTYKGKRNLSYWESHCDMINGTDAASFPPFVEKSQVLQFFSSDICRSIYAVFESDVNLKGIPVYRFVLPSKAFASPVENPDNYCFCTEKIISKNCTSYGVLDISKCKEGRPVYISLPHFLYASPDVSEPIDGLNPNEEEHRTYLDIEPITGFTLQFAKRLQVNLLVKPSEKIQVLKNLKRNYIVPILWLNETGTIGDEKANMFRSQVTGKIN
- measurement.protocol: SPR (Biacore T200), His-captured CD36, bivalent analyte model
The reader will find reported koff values listed item by item below.

>  <binder>
28G04 (antibody, human IgG1, V domains shown, Chimeric: mouse variable regions on human IgG1 LALA (L234A/L235A); also called 028G04) VH: EVQLQQSGPELVKPGASVKISCKTSGYTFTEYTIHWVKQSHGKSLEWIGGIIPNNGGSSHKQNFKDKATLTVDKSSSTAYMELRSLTSEDSAVYYCARAGDYAFDYWGQGTTLTVSS VL: ETTVTQSPASLSMAIGEKVTIRCITSTDIDDDMNWYQQKPGEPPKLLISEGNTLRPGVPSRFSSSGYGTDFVFTIENMLSEDVADYYCLQSGTLPFTFGSGTKLEIK

>  <koff (s⁻¹)>
0.013

$$$$
>  <binder>
7G04 (antibody, human IgG1, V domains shown, Chimeric: mouse variable regions on human IgG1 LALA (L234A/L235A); also called 07G04; 007G04) VH: QVQMKESGAELVRPGASVKLSCKALGYTFTDYEIQWVKQTPVHGLEWIGGIHPGSSGIVYNQKFKGKATLTADKSSSTAYMELSSLTSEDSAVYYCTRGGGYDGAWFAYWGQGSLVTVSA VL: ETTVTQSPASLSMAIGEKVTIRCITSTDIDDDMNWYQQKPGEPPKLLISEGNTLRPGVPSRFSSSGYGTDFVFTIENMLSEDVADYYCLQSDNLPFTFGSGTKLEIK

>  <koff (s⁻¹)>
0.0035

$$$$
>  <binder>
11G04 (antibody, human IgG1, V domains shown, Chimeric: mouse variable regions on human IgG1 LALA (L234A/L235A); also called 011G04) VH: EVQLQQSGAELVRPGASVTLSCKASGYRFSDYEMQWVKQTPVHGLEWIGGIDPETGGIAYNQKFKVKATLTADKSSSTAFMELRSLTSEDSAVYYCTRKLDFDYWGQGTTLTVSS VL: ETTVTQSPASLSVATGEKVTIRCITSTDIDDDMNWYQQKPGEPPKLLISEGNTLRPGVPSRFSSSGYGTDFVFTIENMLSEDVADYYCLQSDNLPLTFGAGTKLELK

>  <koff (s⁻¹)>
0.022

$$$$
